test system: COLO 205 colon; assay: NCI-60 one-dose screen, 48 h; conditions: 10 µM unless noted
This is part of a sample that, as a whole, favours compounds with a hit. Of some 83,000 tested, about 20% had one in any assay. Calls of active or inactive are those of the source. Rule for the calls: active = growth percent below 10; inactive = the rest.
Classes used: 1 (active), 0 (inactive)

{"compound": "O=C(Nc1nc(-c2ccccc2Cl)cs1)c1cc(-c2ccc(Br)cc2)nc2ccccc12", "qualitativeLabel": 0}
{"compound": "Cc1ccc(CS/C(=C\\c2ccc([N+](=O)[O-])cc2)C(=O)c2ccc(F)cc2)cc1", "qualitativeLabel": 0}
{"compound": "Cc1c(Cl)cccc1NC(=O)c1sc2nc3c(cc2c1N)CN(Cc1ccccc1)CC3", "qualitativeLabel": 0}
{"compound": "Cc1[nH]c2ncnc(Oc3ccc(NC(=O)Nc4ccc(Cl)c(C(F)(F)F)c4)cc3)c2c1C", "qualitativeLabel": 0}
{"compound": "OCCNc1nc(NCCO)nc(Nc2ccc(C3=NN(c4ccc(Cl)cc4)C(c4ccc(Cl)cc4)C3)cc2)n1 (stereo not drawn)", "qualitativeLabel": 0}
{"compound": "Cc1cc(C)c2nc(Nc3nc(C)c(C)c(=O)[nH]3)nc(C)c2c1", "qualitativeLabel": 1}
{"compound": "Cc1nnc(/N=C2\\NC(=O)/C(=C/c3ccsc3)S2)s1", "qualitativeLabel": 0}
{"compound": "C=C(C)[C@@H]1CC[C@]2(C(=O)O)CC[C@]3(C)[C@H](CC[C@@H]4[C@@]5(C)C[C@@H](CC#Cc6ccccc6C)C(=O)C(C)(C)[C@@H]5CC[C@]43C)[C@@H]12", "qualitativeLabel": 1}
{"compound": "C=C1C(=O)O[C@H]2[C@H]1CC/C(COC(=O)c1cccnc1N)=C\\CC[C@@]1(C)O[C@@H]21", "qualitativeLabel": 1}
{"compound": "Nc1c(C(=O)c2ccccc2)sc2nc(-c3cc4ccccc4o3)cc(-c3ccc(Cl)cc3)c12", "qualitativeLabel": 0}
{"compound": "Nc1n[nH]c2cccc(C#Cc3cccc(NC(=O)c4cc(N5CCOCC5)cc(C(F)(F)F)c4)c3)c12", "qualitativeLabel": 0}
{"compound": "CCN(CC)CC#CCOC(=O)[C@]1(C)CCC[C@]2(C)[C@H]3C[C@H]4C(C(C)C)=C[C@]3(CC[C@H]21)[C@@H]1C(=O)CCC(=O)[C@@H]14", "qualitativeLabel": 0}
{"compound": "COc1cc(/C=N/Nc2nc(-c3ccc(F)cc3)c(C#N)c(N3CCOCC3)n2)ccc1O", "qualitativeLabel": 0}

Reference source for all entries: PubChem BioAssay (NCI)
